Observed pIC50 for EPHB4 (Homo sapiens, UniProt P54760), reported per entry below.
pIC50: −log10 of the molar value.

Completed entries (count: 4):
QUERY SMILES	pIC50
COc1cc(Nc2ncnc(N(CCC(C)C)c3ccc(Cl)cc3)n2)cc(OC)c1OC	5.28 to 6.06
COc1cc(Nc2ncnc(-n3c(Nc4cccc(C(=O)O)c4)nc4ccccc43)n2)cc(OC)c1OC	< 5.06
COc1cc(Nc2ncnc(-n3c(Nc4ccc(Cl)cc4)nc4ccccc43)n2)cc(OC)c1OC	< 5.05
COc1cc(Nc2ncnc(Nc3ccc(Br)cc3)n2)cc(OC)c1OC	5.26 to 6.03

Input line: Form entry - test system: EPHB4 (Homo sapiens, UniProt P54760); read-out: pIC50; compound: `COc1cc(Nc2ncnc(N(CC(=O)OC(C)(C)C)c3ccc(Cl)cc3)n2)cc(OC)c1OC`
Sequence (P54760 16-987, species assumed): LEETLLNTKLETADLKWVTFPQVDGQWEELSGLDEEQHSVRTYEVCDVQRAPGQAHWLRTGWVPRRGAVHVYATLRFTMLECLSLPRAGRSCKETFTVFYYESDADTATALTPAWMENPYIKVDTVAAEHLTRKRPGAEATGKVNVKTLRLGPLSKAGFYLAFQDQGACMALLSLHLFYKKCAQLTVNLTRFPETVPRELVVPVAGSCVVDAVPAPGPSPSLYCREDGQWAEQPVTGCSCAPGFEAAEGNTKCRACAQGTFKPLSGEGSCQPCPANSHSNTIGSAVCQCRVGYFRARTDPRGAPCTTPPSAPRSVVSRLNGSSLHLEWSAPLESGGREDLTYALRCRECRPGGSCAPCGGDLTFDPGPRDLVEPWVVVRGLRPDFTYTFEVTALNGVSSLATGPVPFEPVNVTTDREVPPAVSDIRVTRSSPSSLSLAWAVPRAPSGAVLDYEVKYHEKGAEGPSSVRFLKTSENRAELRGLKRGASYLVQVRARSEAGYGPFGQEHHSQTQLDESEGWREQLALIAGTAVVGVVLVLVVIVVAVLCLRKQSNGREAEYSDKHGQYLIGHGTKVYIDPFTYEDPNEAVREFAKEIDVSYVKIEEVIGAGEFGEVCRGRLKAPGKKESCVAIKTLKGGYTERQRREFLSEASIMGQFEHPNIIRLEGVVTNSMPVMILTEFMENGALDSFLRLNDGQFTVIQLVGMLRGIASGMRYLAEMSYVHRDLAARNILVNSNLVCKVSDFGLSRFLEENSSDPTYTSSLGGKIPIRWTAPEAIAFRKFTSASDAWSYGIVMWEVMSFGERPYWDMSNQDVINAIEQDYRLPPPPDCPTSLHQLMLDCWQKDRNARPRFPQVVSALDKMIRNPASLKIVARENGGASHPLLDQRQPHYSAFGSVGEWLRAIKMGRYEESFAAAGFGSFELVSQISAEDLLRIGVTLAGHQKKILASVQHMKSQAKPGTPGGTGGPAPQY
Output line: 5.05 to 5.16

Input line: Form entry - test system: EPHB4 (Homo sapiens, UniProt P54760); read-out: pIC50; compound: `COc1cc(Nc2ncnc(Nc3cc(OC)c(OC)c(OC)c3)n2)cc(OC)n1`
Output line: < 4.96

###

Molecular target: Itk (Homo sapiens)
Construct: Kinases are expressed as either kinase domains or full length constructs; made in house
Sequence (Q08881 1-620): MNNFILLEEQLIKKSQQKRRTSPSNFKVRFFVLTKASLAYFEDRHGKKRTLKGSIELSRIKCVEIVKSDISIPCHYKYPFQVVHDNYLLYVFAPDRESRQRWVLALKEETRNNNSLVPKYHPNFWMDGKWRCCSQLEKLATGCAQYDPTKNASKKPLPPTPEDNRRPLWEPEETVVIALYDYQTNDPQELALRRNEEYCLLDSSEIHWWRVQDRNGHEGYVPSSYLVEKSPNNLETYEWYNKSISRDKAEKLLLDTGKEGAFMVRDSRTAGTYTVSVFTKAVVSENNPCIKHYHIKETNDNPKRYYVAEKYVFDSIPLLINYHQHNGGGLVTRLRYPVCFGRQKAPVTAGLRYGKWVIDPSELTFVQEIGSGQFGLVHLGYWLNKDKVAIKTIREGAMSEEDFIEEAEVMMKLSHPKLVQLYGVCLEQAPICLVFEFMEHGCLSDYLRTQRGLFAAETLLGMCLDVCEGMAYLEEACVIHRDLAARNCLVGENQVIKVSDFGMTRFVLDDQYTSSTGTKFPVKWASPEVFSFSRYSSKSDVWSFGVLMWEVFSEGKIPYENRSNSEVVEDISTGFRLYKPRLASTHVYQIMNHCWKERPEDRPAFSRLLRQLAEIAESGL
Assay: Kinase inhibition assay (33P transfer), Itk
Assay type: biochemical
Details: read-out: Itk-1
pIC50: −log10 of the molar value.
MEASURE: pIC50

MOLECULE	pIC50
COc1ccc(Nc2ncnc(NCCNC(C)=O)n2)cc1OC [Compound 784]	< 4.87

Input line: Entry under review: COc1cc(C)c(Nc2ncnc(-n3c(N)nc4ccccc43)n2)cc1OC [Compound 524] . Reported pIC50?
Output line: 4.92 to 5.03

###

Target: Itk (Homo sapiens, UniProt Q08881)
Construct: Kinases are expressed as either kinase domains or full length constructs; made in house
Sequence (Q08881 1-620): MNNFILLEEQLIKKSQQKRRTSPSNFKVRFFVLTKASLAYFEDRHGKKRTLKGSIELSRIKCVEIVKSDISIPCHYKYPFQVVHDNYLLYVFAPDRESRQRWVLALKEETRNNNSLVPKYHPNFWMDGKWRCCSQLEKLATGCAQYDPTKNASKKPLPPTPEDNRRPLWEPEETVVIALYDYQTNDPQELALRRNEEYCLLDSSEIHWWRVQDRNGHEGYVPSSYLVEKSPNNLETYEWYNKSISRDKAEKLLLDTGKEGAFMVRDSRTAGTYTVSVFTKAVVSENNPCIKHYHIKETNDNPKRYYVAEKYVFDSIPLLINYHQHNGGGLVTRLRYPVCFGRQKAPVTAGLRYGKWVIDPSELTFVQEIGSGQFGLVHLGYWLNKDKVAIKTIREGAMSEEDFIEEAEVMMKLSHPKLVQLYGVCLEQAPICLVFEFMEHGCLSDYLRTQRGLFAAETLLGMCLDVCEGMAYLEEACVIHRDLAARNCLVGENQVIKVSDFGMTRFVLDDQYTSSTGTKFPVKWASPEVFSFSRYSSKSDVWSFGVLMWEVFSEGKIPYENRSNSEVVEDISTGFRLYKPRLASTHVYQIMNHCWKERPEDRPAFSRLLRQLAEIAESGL
Assay: Kinase inhibition assay (33P transfer), Itk
Type: biochemical
Conditions: Table 3; read-out: Itk-1
MEASURE: IC50

Completed entries (count: 5):
MOLECULE	MEASURE	EXPERIMENTAL RESULT
c1ccc(-c2ncnc(Nc3ccc(OCCCN4CCOCC4)cc3)n2)cc1 [Compound 154]	IC50	> 11.5 µM
COc1cc(Nc2ncnc(Nc3cc(C)[nH]n3)n2)cc(OC)c1OC [Compound 88]	IC50	1.12 to 6.72 µM
COC(=O)c1ccc(Nc2ncnc(-c3ccccc3)n2)cc1 [Compound 163]	IC50	> 14.7 µM
COc1cc(Nc2ncnc(Nc3cc(C(C)(C)C)[nH]n3)n2)cc(OC)c1OC [Compound 313]	IC50	6.01 to 8.76 µM
COc1cc(Nc2ncnc(Nc3ccc(Br)cc3)n2)cc(OC)c1OC [Compound 82]	IC50	> 10.4 µM

From here, focus on the item given below.
Input line: Form entry - test system: Itk (Homo sapiens, UniProt Q08881); read-out: IC50; molecule: COc1cc(Nc2ncnc(Nc3cc(OC)c(OC)c(OC)c3)n2)cc(OC)c1 [Compound 86]
Output line: > 10.9 µM

###

Target: FGFR1 (Homo sapiens, UniProt P11362)
Sequence (P11362 22-822, species assumed): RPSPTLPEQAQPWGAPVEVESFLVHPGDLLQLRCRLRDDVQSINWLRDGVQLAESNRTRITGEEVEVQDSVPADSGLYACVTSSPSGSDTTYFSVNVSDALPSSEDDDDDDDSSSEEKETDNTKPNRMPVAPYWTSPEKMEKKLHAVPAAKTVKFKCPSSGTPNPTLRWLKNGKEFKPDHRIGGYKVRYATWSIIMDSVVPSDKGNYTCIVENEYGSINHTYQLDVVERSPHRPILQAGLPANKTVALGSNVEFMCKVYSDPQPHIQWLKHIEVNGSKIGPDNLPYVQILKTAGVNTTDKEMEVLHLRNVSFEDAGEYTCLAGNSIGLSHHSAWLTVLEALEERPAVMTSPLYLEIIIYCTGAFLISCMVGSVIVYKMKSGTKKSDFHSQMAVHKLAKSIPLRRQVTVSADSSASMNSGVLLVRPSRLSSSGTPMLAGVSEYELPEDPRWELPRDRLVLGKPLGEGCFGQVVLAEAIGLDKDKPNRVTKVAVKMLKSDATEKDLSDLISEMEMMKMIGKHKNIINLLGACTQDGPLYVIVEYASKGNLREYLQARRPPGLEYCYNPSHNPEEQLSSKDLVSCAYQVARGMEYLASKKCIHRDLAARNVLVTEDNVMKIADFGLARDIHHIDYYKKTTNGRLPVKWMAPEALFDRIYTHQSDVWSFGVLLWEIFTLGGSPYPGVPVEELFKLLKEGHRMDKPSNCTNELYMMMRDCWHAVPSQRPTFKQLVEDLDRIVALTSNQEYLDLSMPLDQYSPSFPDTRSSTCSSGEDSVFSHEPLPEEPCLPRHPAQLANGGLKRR
Measured IC50, listed per entry for reference.

Completed entries (count: 5):
COMPOUND	TARGET ENTITY	EXPERIMENTAL RESULT
COc1cc(Nc2ncnc(-n3c(N)nc4ccccc43)n2)cc(OC)c1OC	FGFR1 (Homo sapiens, UniProt P11362)	< 1.02 µM
COc1cc(Nc2ncnc(Nc3cc(-c4ccc(Cl)cc4)n[nH]3)n2)cc(OC)c1OC	FGFR1 (Homo sapiens, UniProt P11362)	5.29 to 7.71 µM
COc1cc(Nc2ncnc(Nc3ccc(C)cc3F)n2)cc(OC)c1OC	FGFR1 (Homo sapiens, UniProt P11362)	> 11.7 µM
COc1cc(Nc2ncnc(Nc3cc(-c4ccccc4)nn3C)n2)cc(OC)c1OC	FGFR1 (Homo sapiens, UniProt P11362)	0.923 to 5.54 µM
COc1cc(Nc2ncnc(-n3c(N)nc4cc(C(F)(F)F)ccc43)n2)cc(OC)c1OC	FGFR1 (Homo sapiens, UniProt P11362)	7.59 to 9.75 µM

Input line: Form entry - test system: FGFR1 (Homo sapiens, UniProt P11362); read-out: IC50; compound: `COc1cc(Nc2ncnc(-n3c(NCc4ccccn4)nc4ccccc43)n2)cc(OC)c1OCCn1ccnn1`
Output line: < 0.707 µM

Input line: Form entry - test system: FGFR1 (Homo sapiens, UniProt P11362); read-out: IC50; compound: `COc1cc(Nc2ncnc(Nc3cc(-c4cccs4)n[nH]3)n2)cc(OC)c1OC`
Output line: 0.94 to 5.64 µM

Input line: Form entry - test system: FGFR1 (Homo sapiens, UniProt P11362); read-out: IC50; compound: COc1cc(Nc2ncnc(N3c4ccc(F)cc4CCC3C)n2)cc(OC)c1OC (centres unmarked)
Output line: < 0.94 µM

Input line: Form entry - test system: FGFR1 (Homo sapiens, UniProt P11362); read-out: IC50; compound: `Nc1nc2ccccc2n1-c1ncnc(Nc2ccc(N3CCOCC3)cc2)n1`
Output line: 1.03 to 6.18 µM

Input line: Form entry - test system: FGFR1 (Homo sapiens, UniProt P11362); read-out: IC50; compound: `COc1ccccc1Nc1ncnc(Nc2cc(OC)c(OC)c(OC)c2)n1`
Output line: 1.04 to 6.26 µM

Input line: Form entry - test system: FGFR1 (Homo sapiens, UniProt P11362); read-out: IC50; compound: `COc1cc(Nc2ncnc(Nc3ccc(Cl)cc3F)n2)cc(OC)c1OC`
Output line: 0.986 to 5.91 µM

Input line: Form entry - test system: FGFR1 (Homo sapiens, UniProt P11362); read-out: IC50; compound: `CNc1nc2ccccc2n1-c1ncnc(Nc2cc(OC)c(OC)c(OC)c2)n1`
Output line: < 0.982 µM

###

Measured IC50, listed per entry for reference.
Target: EGFR (Homo sapiens, UniProt P00533)
Construct: Kinases are expressed as either kinase domains or full length constructs; made in house
Sequence (P00533 25-1210, species assumed): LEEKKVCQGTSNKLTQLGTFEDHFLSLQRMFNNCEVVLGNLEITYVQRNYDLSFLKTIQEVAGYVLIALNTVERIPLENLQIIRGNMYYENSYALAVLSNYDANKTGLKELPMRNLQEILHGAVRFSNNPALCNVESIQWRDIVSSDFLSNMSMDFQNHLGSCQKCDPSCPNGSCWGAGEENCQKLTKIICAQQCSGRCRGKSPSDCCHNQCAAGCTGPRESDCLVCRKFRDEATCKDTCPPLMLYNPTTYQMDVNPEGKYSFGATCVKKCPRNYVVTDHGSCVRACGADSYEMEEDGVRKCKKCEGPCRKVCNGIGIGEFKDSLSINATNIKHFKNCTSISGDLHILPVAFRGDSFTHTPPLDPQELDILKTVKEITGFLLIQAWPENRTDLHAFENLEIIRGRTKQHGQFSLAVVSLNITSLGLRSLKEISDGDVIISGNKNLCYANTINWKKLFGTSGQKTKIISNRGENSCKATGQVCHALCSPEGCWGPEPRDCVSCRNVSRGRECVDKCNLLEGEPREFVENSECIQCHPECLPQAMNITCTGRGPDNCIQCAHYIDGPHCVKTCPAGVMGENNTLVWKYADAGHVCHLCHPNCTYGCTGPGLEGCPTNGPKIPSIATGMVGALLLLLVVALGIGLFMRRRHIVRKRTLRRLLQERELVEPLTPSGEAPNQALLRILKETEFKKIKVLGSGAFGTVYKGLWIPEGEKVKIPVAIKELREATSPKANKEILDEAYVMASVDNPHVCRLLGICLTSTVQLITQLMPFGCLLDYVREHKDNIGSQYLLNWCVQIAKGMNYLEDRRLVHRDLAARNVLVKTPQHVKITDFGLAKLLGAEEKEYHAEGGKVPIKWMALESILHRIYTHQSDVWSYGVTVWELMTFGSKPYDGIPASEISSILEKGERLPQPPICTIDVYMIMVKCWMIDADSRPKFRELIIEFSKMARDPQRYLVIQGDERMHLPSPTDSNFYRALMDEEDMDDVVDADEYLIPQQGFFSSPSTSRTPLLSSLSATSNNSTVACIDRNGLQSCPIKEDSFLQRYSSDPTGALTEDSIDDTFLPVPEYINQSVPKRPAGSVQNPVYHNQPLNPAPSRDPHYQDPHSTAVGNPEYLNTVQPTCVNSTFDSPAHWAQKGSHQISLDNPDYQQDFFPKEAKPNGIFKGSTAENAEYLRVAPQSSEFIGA
Experiment: Kinase inhibition assay (33P transfer), EGFR
Type: biochemical
Details: Table 2, class symbols A-E; read-out: EGFR-1

Completed entries (count: 5):
COMPOUND	TARGET ENTITY	IC50
COc1cc(Nc2ncnc(-c3cccnc3N[C@@H](C)c3ccccc3)n2)cc(OC)c1OC [Compound 1111]	EGFR (Homo sapiens, UniProt P00533)	0.872 to 5.23 µM
COc1cc(Nc2ncnc(-c3cccnc3Nc3ccccc3C)n2)cc(OC)c1OC [Compound 833]	EGFR (Homo sapiens, UniProt P00533)	> 10.1 µM
COC(=O)c1ccc(-c2cc(Nc3ncnc(NC4=NC(=O)CS4)n3)[nH]n2)cc1 [Compound 881]	EGFR (Homo sapiens, UniProt P00533)	0.975 to 5.85 µM
CCOc1ccc(Nc2ncnc(N(C)c3cccc(Cl)c3)n2)cc1OCC [Compound 640]	EGFR (Homo sapiens, UniProt P00533)	< 1 µM
FC(F)(F)Oc1cccc(Nc2ncnc(Nc3ccc4c(cnn4Cc4ccccc4)c3)n2)c1 [Compound 907]	EGFR (Homo sapiens, UniProt P00533)	< 0.838 µM

Input line: Entry under review: Cc1ccc2c(c1)CCCN2c1ncnc(Nc2ccc(F)c(F)c2)n1 [Compound 893] . Reported IC50?
Output line: 1.13 to 6.79 µM

Input line: Entry under review: Cc1ccc(Cl)cc1Nc1ncnc(Nc2cc(Cl)ccc2C)n1 [Compound 638] . Reported IC50?
Output line: < 1.11 µM

Input line: Entry under review: COC(=O)c1ccc(-c2cc(Nc3ncnc(NCCc4ccc(OC)cc4)n3)[nH]n2)cc1 [Compound 817] . Reported IC50?
Output line: > 10.1 µM

Input line: Entry under review: COC(=O)c1ccc(-c2cc(Nc3ncnc(NCCN4CCOCC4)n3)[nH]n2)cc1 [Compound 808] . Reported IC50?
Output line: 5.65 to 8.25 µM
